# growth inhibition per entry
method: NCI Yeast Anticancer Drug Screen. Data for the cln2 rad14 strain (AID 165);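 also: 0% = growth equal to vehicle treated cultures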
measurement-context: S. cerevisiae cln2 rad14 strain, at 50.0 µM, hits give high values
The panel holds about 79,000 compounds, 15% with a hit somewhere; the sample as a whole holds those more often.
Reply with just the number (in %).

Consider the following illustrative entries.
// growth inhibition lookup, compound = O=C(O)CNCCO , result: 0

// growth inhibition lookup, compound = COC1OC(COC(c2ccccc2)(c2ccccc2)c2ccccc2)C(OS(=O)(=O)c2ccc(C)cc2)C(OC(=O)c2ccccc2)C1OC(=O)c1ccccc1 (configuration not stated) , result: -7.35

// growth inhibition lookup, compound = CC(C)(C)CC(C)(C)N , result: -41.5

// growth inhibition lookup, compound = CC(C)Nc1ncnc2c1cnn2-c1ccccc1 , result: -57.7

// growth inhibition lookup, compound = Cc1cc(O)c(C(c2ccc3c(c2)OCO3)c2c(O)cc(C)[nH]c2=O)c(=O)[nH]1 , result: -1.1

---
// growth inhibition lookup, compound = COc1ccc(CCCCC(=O)O)cc1 , result: -2.7

// growth inhibition lookup, compound = CC(NC(=O)NCCCl)C1CC1 (configuration not stated) , result: -11.8

// growth inhibition lookup, compound = C=CCNC(=O)C[n+]1cccc(C(=O)NC)c1 , result: -5.35

// growth inhibition lookup, compound = CC(=O)NC(CSCC(=O)c1ccccc1)C(=O)O (configuration not stated) , result: -6.05

// growth inhibition lookup, compound = O=C(O)c1ccc([N+](=O)[O-])cc1C(=O)c1cccs1 , result: -2.35

// growth inhibition lookup, compound = c1ccc(Nc2nnc(-c3nsc4ccccc34)o2)cc1 , result: -1.4

// growth inhibition lookup, compound = Cc1cc(C)nc(NS(=O)(=O)c2ccc(NC(=O)C(Cl)(Cl)Cl)cc2)n1 , result: -13

----------
# growth inhibition per entry
method: NCI Yeast Anticancer Drug Screen. Data for the mec2-1 strain (AID 157)
measurement-context: S. cerevisiae mec2-1 strain, at 50.0 µM, hits give high values
This is part of a sample that, as a whole, favours compounds with a hit. Of some 79,000 tested, about 15% had one in any assay.
Reply with just the number (in %).

// growth inhibition lookup, molecule = COc1ccc(C(=O)C(c2ccc(OCc3ccccc3)cc2)c2ccc(OCc3ccccc3)cc2)cc1 , result: -35.8

// growth inhibition lookup, molecule = CC(=O)OCCOCN1C(=O)CC(=O)NC1=O , result: -10.6

// growth inhibition lookup, molecule = CN(C)c1ccc(N2C(=S)SC(=Nc3ccccc3)C2=Nc2ccccc2)cc1 , result: -13.6

---
// growth inhibition lookup, molecule = COc1cc(C2c3cc4c(cc3[C@@H](Nc3ccc(C#N)cc3)C3COC(=O)[C@H]23)OCO4)cc(OC)c1O (some centres undefined) , result: 89.7

// growth inhibition lookup, molecule = COC(=O)/C(=C/c1ccccc1)N(C(C)=O)C(C)=O , result: -1.6

----------
# growth inhibition per entry
method: NCI Yeast Anticancer Drug Screen. Data for the mlh1 rad18 strain (AID 175)
measurement-context: S. cerevisiae mlh1 rad18 strain growth inhibition; at 50.0 µM; hits give high values
Experimental: Growth inhibition of yeast strains with defined genetic alterations is measured as a screen for potential anti-cancer activity. Selected strains with alterations in DNA damage repair or cell cycle control were exposed to compounds and growth inhibition was measured relative to vehicle treated controls. The strain used in this assay is mlh1 rad18
Compounds without any hit were thinned out: in the full panel of roughly 79,000, 15% have a hit.
Reply with just the number (in %).

Consider the following illustrative entries.
// growth inhibition lookup, compound = CCCCCCCCCCCCCC(=O)CCCC , result: -18

// growth inhibition lookup, compound = CCOC(=O)/C(C)=C(/C)Nc1ccccc1 , result: 2.7

// growth inhibition lookup, compound = COc1ccccc1/C=N/Nc1nnc2c3ccccc3c3ncccc3c2n1 , result: -34

// growth inhibition lookup, compound = C/C=C/COc1cc2c(cc1C(C)c1ccc(OC)cc1)OCO2 (configuration not stated) , result: -1.2

// growth inhibition lookup, compound = Cn1c(=O)c(Br)c(C=O)n(CCO[N+](=O)[O-])c1=O , result: -27.6

// growth inhibition lookup, compound = NC(CCSCC(F)F)C(=O)O (configuration not stated) , result: 25.4

Turning now to a further compound:
// growth inhibition lookup, compound = COc1cc(/C=C/C(=O)NCCc2c[nH]c3ccc(O)cc23)ccc1O , result: 6.75
